- System: CP260
- protocol summary: qHTS profiling for inhibitors of Plasmodium falciparum proliferation (AID 504749); also: nearly all actives have a fitted effect of over 60% in size
- measurement setup: P. falciparum in erythrocytes, SYBR Green DNA, 72 h; series mostly up to 28.7 µM
Inconclusive results are not listed. Activity calls are given as the source filed them. Calls follow the shape of the dose curve; as a rule, active = well fitted inhibition curve with a large enough effect; inconclusive = small, poorly fitted or top-dose-only effect; inactive = flat fitted curve, though single readings scatter.
A correct response names exactly one class from Y (active), N (inactive)

Worked examples follow.
- C#CCN1CC(=O)N(COC(=O)[C@@H]2[C@@H](C=C(C)C)C2(C)C)C1=O: N
- C=C1Nc2ccccc2C(=O)N1c1ccccc1C: N
- OCC(O)[C@H]1O[C@@H]2O[C@H](C(Cl)(Cl)Cl)O[C@@H]2[C@H]1O (some centres not stated): N
- CC(C)=CC1C(C(=O)OCc2coc(Cc3ccccc3)c2)C1(C)C (configuration not stated): N
- C[C@@H](N)[C@@H](O)c1ccc(O)c(O)c1: N
- CC(Cc1ccccc1)N(C)C (configuration not stated): N
- Nc1nc(O)c(-c2ccccc2)o1: N
- CCCN1CCCC2Cc3nc(N)ncc3CC21 (configuration not stated): N

Short answer needed: outcome of this test for COC(C(=O)C(O)C(C)O)C1Cc2cc3cc(OC4CC(OC5CC(O)C(OC)C(C)O5)C(OC(C)=O)C(C)O4)c(C)c(O)c3c(O)c2C(=O)C1OC1CC(OC2CC(OC3CC(C)(O)C(OC(C)=O)C(C)O3)C(O)C(C)O2)C(O)C(C)O1 (configuration not stated) ?
Y

Short answer needed: outcome of this test for COC(=O)C1C(OC(=O)c2ccccc2)CC2CCC1N2C (configuration not stated) ?
N

Short answer needed: outcome of this test for C[C@@H]1CC[C@H]2[C@@H](C)C(=O)O[C@@H]3OC4(C)CC[C@@H]1C32OO4 (some centres not stated) ?
Y

Short answer needed: outcome of this test for CCC/C=C/C=C/C(=O)OC1/C(=C/C(=O)OC)CC2CC(C(C)O)OC(=O)CC(O)CC3CC(OC(C)=O)C(C)(C)C(O)(CC4C/C(=C/C(=O)OC)CC(/C=C\C(C)(C)C1(O)O2)O4)O3 (configuration not stated) ?
Y

Short answer needed: outcome of this test for `CCOC(=O)c1cncn1[C@@H](C)c1ccccc1` ?
N

Short answer needed: outcome of this test for CC(=O)O[C@H]1C[C@H](O[C@H]2[C@@H](O)CC(O[C@H]3[C@@H](O)C[C@H](O[C@H]4CC[C@@]5(C)[C@H](CC[C@@H]6[C@@H]5CC[C@]5(C)[C@@H](C7=CC(=O)OC7)CC[C@]65O)C4)O[C@@H]3C)O[C@@H]2C)O[C@H](C)[C@H]1O[C@@H]1O[C@H](CO)[C@@H](O)[C@H](O)[C@H]1O (some centres not stated) ?
N

Short answer needed: outcome of this test for O=C1CC2OCC=C3CN4CC[C@]56c7ccccc7N1C5C2[C@H]3C[C@H]46 (some centres not stated) ?
Y

Short answer needed: outcome of this test for C#C[C@]1(O)CC[C@H]2[C@@H]3CCC4=CC(=O)CCC4(C)[C@H]3CCC21C (some centres not stated) ?
N

Short answer needed: outcome of this test for CC(=O)Oc1ccc2c3c1OC1[C@@H](OC(C)=O)C=C[C@H]4[C@H](C2)N(C)CC[C@]314 (some centres not stated) ?
N

----------
- protocol summary: qHTS Assay for Identification of Small Molecule Antagonists for NFkB Signaling Pathway (AID 895)
- measurement setup: NFkB beta-lactamase reporter cells, FRET ratio 460/530; series mostly up to 38.3 µM
Results filed as inconclusive are left out. Active and inactive are the calls of the source. The call rests on the fitted dose curve; in most records, active means well fitted inhibition curve with a large enough effect in the signal ratio, with a control signal flat (not every such curve was filed as active); inconclusive means small, poorly fitted or top-dose-only effect, or effect the other way, or a change in a side signal; inactive means flat fitted curve, though single readings scatter; the % refers to the signal ratio.
A correct response names exactly one class from active, inactive

• C[C@]1(C(=O)O)[C@@H]2CC[C@@H](O2)[C@@]1(C)C(=O)O = active
• CCN(CC)C(=O)N[C@H]1C[C@H]2c3cccc4[nH]cc(c34)C[C@@H]2N(C)C1 = inactive
• Oc1cc2c(cc1O)[C@H]1c3ccccc3CN[C@@H]1CC2 = active
• C[N+]1(C)CCO[C@@](O)(c2ccc(-c3ccc([C@]4(O)C[N+](C)(C)CCO4)cc3)cc2)C1 = inactive
• C[C@H](N[C@@H](C)CCc1ccccc1)[C@H](O)c1ccc(O)cc1 = active

Okay, now this compound:
Short answer needed: outcome of this test for `C=CCN1C[C@@H](C)N([C@H](c2ccc(C(=O)N(CC)CC)cc2)c2cccc(OC)c2)C[C@H]1C` ?
active

----------
- study system: Voltage-gated inwardly rectifying potassium channel KCNH2 (Homo sapiens) (UniProt Q12809)
- Sequence (Q12809 whole entry, looked up): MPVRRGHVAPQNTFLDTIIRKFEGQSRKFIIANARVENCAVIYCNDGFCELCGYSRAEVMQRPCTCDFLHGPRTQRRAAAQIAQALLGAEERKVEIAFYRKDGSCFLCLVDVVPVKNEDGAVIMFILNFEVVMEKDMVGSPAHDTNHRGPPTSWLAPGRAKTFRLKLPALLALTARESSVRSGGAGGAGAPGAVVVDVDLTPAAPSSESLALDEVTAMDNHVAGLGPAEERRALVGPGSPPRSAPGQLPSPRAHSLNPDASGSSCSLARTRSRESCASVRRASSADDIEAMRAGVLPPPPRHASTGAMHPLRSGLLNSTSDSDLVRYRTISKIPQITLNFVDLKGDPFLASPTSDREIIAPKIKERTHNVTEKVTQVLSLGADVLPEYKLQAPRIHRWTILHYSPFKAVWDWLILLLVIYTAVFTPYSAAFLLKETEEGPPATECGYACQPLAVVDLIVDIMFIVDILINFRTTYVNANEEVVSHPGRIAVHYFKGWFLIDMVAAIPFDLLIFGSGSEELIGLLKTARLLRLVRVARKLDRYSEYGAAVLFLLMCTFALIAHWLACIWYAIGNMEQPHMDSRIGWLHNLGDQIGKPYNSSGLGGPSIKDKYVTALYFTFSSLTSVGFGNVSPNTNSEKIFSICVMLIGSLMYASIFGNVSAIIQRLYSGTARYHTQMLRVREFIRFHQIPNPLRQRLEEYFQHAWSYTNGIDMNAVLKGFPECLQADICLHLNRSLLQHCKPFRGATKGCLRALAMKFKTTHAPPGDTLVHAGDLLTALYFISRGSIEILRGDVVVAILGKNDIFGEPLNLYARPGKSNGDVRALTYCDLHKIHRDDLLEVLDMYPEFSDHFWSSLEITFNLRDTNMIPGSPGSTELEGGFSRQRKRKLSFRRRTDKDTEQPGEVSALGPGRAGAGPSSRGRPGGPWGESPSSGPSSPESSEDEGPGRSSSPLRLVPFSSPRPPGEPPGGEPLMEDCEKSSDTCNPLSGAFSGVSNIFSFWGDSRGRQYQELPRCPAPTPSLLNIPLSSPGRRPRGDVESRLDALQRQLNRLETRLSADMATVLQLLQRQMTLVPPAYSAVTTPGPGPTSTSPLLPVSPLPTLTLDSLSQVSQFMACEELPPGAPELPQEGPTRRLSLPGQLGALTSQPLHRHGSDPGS
- protocol summary: qHTS Assay for Small Molecule Inhibitors of the Human hERG Channel Activity (AID 588834);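 also: potency is read from the fitted curve at half-maximal effect; lower thallium flux fluorescence means stronger hERG block; nearly all actives have a fitted effect of over 50% in size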
- measurement setup: U2OS BacMam hERG, FluxOR thallium flux fluorescence; series mostly up to 92.2 µM
Inconclusive results are not listed. The source made the active and inactive calls. The call rests on the fitted dose curve; in most records, active means well fitted inhibition curve with a large enough effect; inconclusive means small, poorly fitted or top-dose-only effect; inactive means flat fitted curve, though single readings scatter.
measured parameter: Potency

* CC(C)CC(C)Nc1ccc(Nc2ccccc2)cc1 (stereo not drawn) | 20 µM (active)

Let's switch to this compound now.
The compound identified as `C[C@@H]1CC[C@@]2(OC1)O[C@H]1[C@@H](O)[C@H]3[C@@H]4CC[C@H]5C[C@@H](O[C@@H]6O[C@H](CO)[C@H](O[C@@H]7O[C@H](CO)[C@@H](O)[C@H](O[C@@H]8OC[C@@H](O)[C@H](O)[C@H]8O)[C@H]7O[C@@H]7O[C@H](CO)[C@@H](O)[C@H](O[C@@H]8O[C@H](CO)[C@@H](O)[C@H](O)[C@H]8O)[C@H]7O)[C@H](O)[C@H]6O)[C@H](O)C[C@]5(C)[C@H]4CC[C@]3(C)[C@H]1[C@@H]2C` registered its Potency at 25.1 µM (active)

----------
- Tested on: W2
- protocol summary: qHTS profiling for inhibitors of Plasmodium falciparum proliferation (AID 504749); also: nearly all actives have a fitted effect of over 60% in size
- measurement setup: P. falciparum in erythrocytes, SYBR Green DNA, 72 h; series mostly up to 28.7 µM
Results filed as inconclusive are left out. Activity calls are given as the source filed them. Calls come from the whole dose curve; as a rule, active = well fitted inhibition curve with a large enough effect; inconclusive = small, poorly fitted or top-dose-only effect; inactive = flat fitted curve, though single readings scatter.
A correct response names exactly one class from active, inactive

• COc1ccc2c3c1O[C@H]1[C@@H](O)C=C[C@H]4C(C2)NCCC341 (stereo partly drawn) = inactive
• CCC(=O)OC1(c2ccccc2)CCN(C)CC1C (stereo not drawn) = active
• C#CCN1CC(=O)N(COC(=O)[C@@H]2[C@@H](C=C(C)C)C2(C)C)C1=O = inactive
• O=[N+]([O-])OC1CO[C@H]2C(O[N+](=O)[O-])COC12 (stereo partly drawn) = inactive
• C[C@@H](N)[C@@H](O)c1ccc(O)c(O)c1 = inactive

Short answer needed: outcome of this test for CCCC(C)C1(CC)C(=O)NC(=S)NC1=O (stereo not drawn) ?
active

Short answer needed: outcome of this test for CC(=O)O[C@H]1C[C@H](O[C@H]2[C@@H](O)CC(O[C@H]3[C@@H](O)C[C@H](O[C@H]4CC[C@@]5(C)[C@H](CC[C@@H]6[C@@H]5CC[C@]5(C)[C@@H](C7=CC(=O)OC7)CC[C@]65O)C4)O[C@@H]3C)O[C@@H]2C)O[C@H](C)[C@H]1O[C@@H]1O[C@H](CO)[C@@H](O)[C@H](O)[C@H]1O (stereo partly drawn) ?
inactive

Short answer needed: outcome of this test for CN1C2CCC1C(C(=O)O)C(OC(=O)c1ccccc1)C2 (stereo not drawn) ?
inactive

----------
- System: CP286
- protocol summary: qHTS profiling for inhibitors of Plasmodium falciparum proliferation (AID 504749); also: nearly all actives have a fitted effect of over 60% in size
- measurement setup: P. falciparum in erythrocytes, SYBR Green DNA, 72 h; series mostly up to 28.7 µM
Inconclusive results are not listed. Activity calls are given as the source filed them. Calls follow the shape of the dose curve; as a rule, active = well fitted inhibition curve with a large enough effect; inconclusive = small, poorly fitted or top-dose-only effect; inactive = flat fitted curve, though single readings scatter.
A correct response names exactly one class from active, inactive

Worked examples follow.
• NC(Cc1ccc(Oc2cc(I)c(O)c(I)c2)c(I)c1)C(=O)O (centres undefined) = inactive
• C=CC[C@]1(O)CCC2C3CCC4=CCCCC4C3CCC21C (some centres undefined) = inactive
• CN1C2CCC1C(C(=O)O)C(OC(=O)c1ccccc1)C2 (centres undefined) = inactive
• COC(C(=O)C(O)C(C)O)C1Cc2cc3cc(OC4CC(OC5CC(O)C(OC)C(C)O5)C(OC(C)=O)C(C)O4)c(C)c(O)c3c(O)c2C(=O)C1OC1CC(OC2CC(OC3CC(C)(O)C(OC(C)=O)C(C)O3)C(O)C(C)O2)C(O)C(C)O1 (centres undefined) = active
• CC(Cc1ccccc1)N(C)C (centres undefined) = inactive

Short answer needed: outcome of this test for `Cc1ccc2c(c1)[C@@H]1CN(C)CC[C@H]1N2` ?
inactive

Short answer needed: outcome of this test for C=CC[N+]1(C)CCC23c4c5ccc(O)c4O[C@H]2C(=O)CC[C@@]3(O)C1C5 (some centres undefined) ?
inactive

Short answer needed: outcome of this test for CC(=O)[C@H]1CC[C@H]2C3CC[C@H]4C[C@H](O)CC[C@]4(C)C3CC[C@]12C (some centres undefined) ?
inactive

Short answer needed: outcome of this test for O=[N+]([O-])OC1CO[C@H]2C(O[N+](=O)[O-])COC12 (some centres undefined) ?
inactive

These measurements were taken from PubChem BioAssay (NCATS).
